Each recorded value in this set is attributed to patent US8865623B2.

- Test system: Echinochloa crus-galli (ECHCG)
- Assay Method Text: Pre-emergence herbicidal activity, glasshouse pot test
- Format: in vivo
- Condition Label: Echinochloa crus-galli, 312 h; Rate 250 g/ha; pre-emergence spray; evaluated after 13 days; read-out: Pre-emergence activity ECHCG (100=total damage to plant; 0=no damage to plant)
Below, each entry is listed alongside its reported pest or weed control at 250 g/ha.

{"Entry Smiles": "CCc1ccc(Oc2nc3ccccc3s2)cc1C1=C(O)[C@@H]2CC[C@](C)(C1=O)C2(C)C", "pest or weed control at 250 g/ha / %": 100}
{"Entry Smiles": "CCc1ccc(Oc2cccc(F)c2F)cc1C1=C(O)C(C)(C)OC(C)(C)C1=O", "pest or weed control at 250 g/ha / %": 100}
{"Entry Smiles": "CCc1ccc(Oc2ccc(Cl)c(C)c2)cc1C1=C(O)C(C)(C)OC(C)(C)C1=O", "pest or weed control at 250 g/ha / %": 50}
{"Entry Smiles": "CCc1ccc(Oc2ccc(Cl)cn2)cc1C1=C(O)CC(C)(C)CC1=O", "pest or weed control at 250 g/ha / %": 100}

###

- Tested on: Echinochloa crus-galli (ECHCG)
- Assay Method Text: Pre-emergence herbicidal activity, glasshouse pot test
- Assay type: in vivo
- Condition Label: Echinochloa crus-galli, 312 h; Rate 250 g/ha; pre-emergence spray; evaluated after 13 days; read-out: Pre-emergence activity ECHCG (100=total damage to plant; 0=no damage to plant)
# pest or weed control at 250 g/ha per record follows

{"Compound": "CCc1ccc(Oc2nc3c(Cl)cc(Cl)cc3s2)cc1C1=C(O)[C@H]2CC[C@H](C2)C1=O", "pest or weed control at 250 g/ha (%)": 100}
{"Compound": "CCc1ccc(Oc2cnc3ccc(Br)cc3n2)cc1C1=C(O)C(C)(C)OC(C)(C)C1=O", "pest or weed control at 250 g/ha (%)": 100}
{"Compound": "CCc1ccc(Oc2ccc(C(F)(F)F)cc2Cl)cc1C1=C(O)C(C)(C)OC(C)(C)C1=O", "pest or weed control at 250 g/ha (%)": 100}
{"Compound": "CCc1ccc(Oc2ccc(C(F)(F)F)cn2)cc1C1=C(O)C(C)(C)OC(C)(C)C1=O", "pest or weed control at 250 g/ha (%)": 100}
{"Compound": "CCc1ccc(Oc2ccc(Br)cc2F)cc1C1=C(O)CC2(CCOCC2)CC1=O", "pest or weed control at 250 g/ha (%)": 90}
{"Compound": "CCc1ccc(Oc2ccc(Cl)cc2F)cc1C1=C(O)CCCC1=O", "pest or weed control at 250 g/ha (%)": 70}
{"Compound": "CCc1ccc(Oc2ccc(C(F)(F)F)cc2Cl)cc1C1=C(O)[C@H]2CC[C@H](C2)C1=O", "pest or weed control at 250 g/ha (%)": 100}
{"Compound": "CCc1ccc(Oc2cc(Cl)c3ccccc3n2)cc1C1=C(O)C(C)(C)OC(C)(C)C1=O", "pest or weed control at 250 g/ha (%)": 100}
{"Compound": "CCc1ccc(Oc2ccc(Cl)cc2)cc1C1=C(O)[C@H]2CC[C@H](C2)C1=O (single isomer, unassigned)", "pest or weed control at 250 g/ha (%)": 100}
{"Compound": "CCc1ccc(Oc2ncc(Cl)cc2Cl)cc1C1=C(O)C(C)(C)OC(C)(C)C1=O", "pest or weed control at 250 g/ha (%)": 100}
{"Compound": "CCc1ccc(Oc2ccc3cc(Cl)ccc3n2)cc1C1=C(O)CC(C)(C)CC1=O", "pest or weed control at 250 g/ha (%)": 90}
{"Compound": "CCc1ccc(Oc2ccc([N+](=O)[O-])cc2C(F)(F)F)cc1C1=C(O)CC(C)(C)CC1=O", "pest or weed control at 250 g/ha (%)": 90}
{"Compound": "CCc1ccc(Oc2nc3cc(OC)ccc3s2)cc1C1=C(O)C(C)(C)OC(C)(C)C1=O", "pest or weed control at 250 g/ha (%)": 40}
{"Compound": "CCc1ccc(Oc2ncccc2C(F)(F)F)cc1C1=C(O)C(C)(C)OC(C)(C)C1=O", "pest or weed control at 250 g/ha (%)": 20}
{"Compound": "CCc1ccc(Oc2nc3ccc([N+](=O)[O-])cc3s2)cc1C1=C(O)[C@@H]2CC[C@](C)(C1=O)C2(C)C", "pest or weed control at 250 g/ha (%)": 100}
{"Compound": "CCc1ccc(Oc2cc(OC)c(Cl)nn2)cc1C1=C(O)C(C)(C)OC(C)(C)C1=O", "pest or weed control at 250 g/ha (%)": 30}
